biological target: EZH2 within the PRC2 complex (Homo sapiens, UniProt Q15910); construct: FLAG; experiment: EZH2 methyltransferase scintillation proximity assay (SPA) with PRC2 complex; details: 3H-SAM, HeLa mononucleosome substrate, 30 min preincubation, 1 hour reaction
Sequence (Q15910 whole entry): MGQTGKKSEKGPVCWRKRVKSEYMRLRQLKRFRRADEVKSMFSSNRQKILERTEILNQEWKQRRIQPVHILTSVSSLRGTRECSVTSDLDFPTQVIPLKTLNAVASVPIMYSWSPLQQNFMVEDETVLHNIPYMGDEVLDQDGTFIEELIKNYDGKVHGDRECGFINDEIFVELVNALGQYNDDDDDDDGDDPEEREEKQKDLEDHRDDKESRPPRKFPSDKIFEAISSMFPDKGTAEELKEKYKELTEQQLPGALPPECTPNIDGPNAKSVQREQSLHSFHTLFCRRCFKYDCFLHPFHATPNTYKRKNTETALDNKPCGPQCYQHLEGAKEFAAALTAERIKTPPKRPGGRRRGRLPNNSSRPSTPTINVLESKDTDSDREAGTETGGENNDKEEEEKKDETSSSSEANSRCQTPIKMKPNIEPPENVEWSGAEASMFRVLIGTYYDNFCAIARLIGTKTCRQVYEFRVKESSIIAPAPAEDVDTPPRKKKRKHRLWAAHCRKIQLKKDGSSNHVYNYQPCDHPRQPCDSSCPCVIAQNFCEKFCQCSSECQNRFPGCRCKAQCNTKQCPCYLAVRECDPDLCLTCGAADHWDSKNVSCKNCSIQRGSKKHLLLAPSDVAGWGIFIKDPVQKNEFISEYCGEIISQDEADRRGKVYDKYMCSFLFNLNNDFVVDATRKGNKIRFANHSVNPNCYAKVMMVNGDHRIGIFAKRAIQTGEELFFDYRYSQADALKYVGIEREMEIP
Sequence (O75530 whole entry partner): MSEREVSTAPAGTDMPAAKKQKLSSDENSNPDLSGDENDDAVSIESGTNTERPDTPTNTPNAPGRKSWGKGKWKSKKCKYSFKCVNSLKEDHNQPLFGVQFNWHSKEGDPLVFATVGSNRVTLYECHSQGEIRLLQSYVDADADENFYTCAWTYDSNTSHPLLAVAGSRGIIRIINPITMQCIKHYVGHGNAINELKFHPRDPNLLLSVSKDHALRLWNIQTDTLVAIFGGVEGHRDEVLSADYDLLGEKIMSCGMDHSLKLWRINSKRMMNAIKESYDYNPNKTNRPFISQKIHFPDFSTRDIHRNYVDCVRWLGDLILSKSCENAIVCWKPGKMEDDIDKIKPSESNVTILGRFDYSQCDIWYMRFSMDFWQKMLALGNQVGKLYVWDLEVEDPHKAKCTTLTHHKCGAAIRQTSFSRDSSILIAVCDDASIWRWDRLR
Sequence (Q15022 whole entry partner): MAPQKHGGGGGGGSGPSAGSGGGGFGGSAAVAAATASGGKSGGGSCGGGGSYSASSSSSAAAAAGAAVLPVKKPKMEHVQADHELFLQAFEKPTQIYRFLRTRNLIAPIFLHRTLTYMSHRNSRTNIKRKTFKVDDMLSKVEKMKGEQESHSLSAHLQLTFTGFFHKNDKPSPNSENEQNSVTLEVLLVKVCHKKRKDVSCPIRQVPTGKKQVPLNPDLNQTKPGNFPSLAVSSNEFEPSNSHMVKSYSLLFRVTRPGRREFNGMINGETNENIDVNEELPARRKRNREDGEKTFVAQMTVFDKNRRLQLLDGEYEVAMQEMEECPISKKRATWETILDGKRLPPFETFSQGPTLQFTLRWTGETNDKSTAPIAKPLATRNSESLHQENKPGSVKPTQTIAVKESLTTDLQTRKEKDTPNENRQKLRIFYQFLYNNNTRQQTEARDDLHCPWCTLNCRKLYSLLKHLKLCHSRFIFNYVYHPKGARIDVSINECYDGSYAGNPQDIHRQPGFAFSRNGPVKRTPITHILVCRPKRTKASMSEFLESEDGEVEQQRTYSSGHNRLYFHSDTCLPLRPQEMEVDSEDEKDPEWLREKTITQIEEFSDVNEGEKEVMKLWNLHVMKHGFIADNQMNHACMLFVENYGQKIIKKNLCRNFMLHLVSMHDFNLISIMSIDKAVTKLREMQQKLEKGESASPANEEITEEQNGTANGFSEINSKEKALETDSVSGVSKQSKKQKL
Sequence (Q09028 whole entry partner): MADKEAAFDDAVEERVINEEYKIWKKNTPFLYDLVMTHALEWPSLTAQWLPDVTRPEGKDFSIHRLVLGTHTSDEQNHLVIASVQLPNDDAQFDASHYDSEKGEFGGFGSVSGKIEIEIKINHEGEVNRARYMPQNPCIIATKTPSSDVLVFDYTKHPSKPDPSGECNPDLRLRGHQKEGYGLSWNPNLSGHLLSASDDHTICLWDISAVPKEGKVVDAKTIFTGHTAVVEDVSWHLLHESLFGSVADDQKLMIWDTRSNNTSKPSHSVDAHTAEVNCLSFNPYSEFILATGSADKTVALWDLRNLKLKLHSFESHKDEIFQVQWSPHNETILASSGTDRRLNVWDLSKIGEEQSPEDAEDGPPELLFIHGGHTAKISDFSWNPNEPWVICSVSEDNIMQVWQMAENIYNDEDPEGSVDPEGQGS
Sequence (Q6ZN18 whole entry partner): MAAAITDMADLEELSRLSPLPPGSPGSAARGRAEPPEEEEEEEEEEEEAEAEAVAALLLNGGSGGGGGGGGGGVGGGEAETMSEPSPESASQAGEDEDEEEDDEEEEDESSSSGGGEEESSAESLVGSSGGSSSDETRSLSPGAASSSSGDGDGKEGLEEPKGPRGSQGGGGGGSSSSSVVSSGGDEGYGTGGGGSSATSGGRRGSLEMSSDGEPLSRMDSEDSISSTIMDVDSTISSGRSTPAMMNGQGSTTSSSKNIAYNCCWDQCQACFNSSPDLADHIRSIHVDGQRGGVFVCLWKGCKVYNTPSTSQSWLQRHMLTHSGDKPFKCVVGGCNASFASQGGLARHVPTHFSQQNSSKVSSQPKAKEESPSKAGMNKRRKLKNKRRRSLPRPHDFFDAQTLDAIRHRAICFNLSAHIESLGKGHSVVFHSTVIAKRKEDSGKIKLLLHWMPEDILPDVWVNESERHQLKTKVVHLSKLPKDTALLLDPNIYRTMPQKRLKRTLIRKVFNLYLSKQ
pIC50: −log10 of the molar value.
measured_parameter: pIC50

{"compound": "Cc1cc2c(c(=O)[nH]1)CNC(=O)c1cc(Cl)cc3c1c(cn3C(C)C)C/C=C/CC2 [Example 1]", "value_measured": 7.40}

P = Cc1cc2c(c(=O)[nH]1)CNC(=O)c1cc(Cl)cc3c1c(cn3C(C)C)C/C=C\CC2 [Example 2]
Q = Cc1cc2c(c(=O)[nH]1)CNC(=O)c1cc(C#N)cc3c1c(cn3C(C)C)C/C=C/CC2 [Example 5]
Rank P against Q by their pIC50 values and give the higher one. Answer by quoting the chosen item's label.
Q

---

biological target: EZH2 within the PRC2 complex (Homo sapiens, UniProt Q15910); construct: FLAG; assay: EZH2 methyltransferase scintillation proximity assay (SPA) with PRC2 complex; conditions: 3H-SAM, HeLa mononucleosome substrate, 30 min preincubation, 1 hour reaction
pIC50: −log10 of the molar value.
measured_parameter: pIC50

a = Cc1cc2c(c(=O)[nH]1)CNC(=O)c1cc(-c3ccc(N4CCNCC4)nc3)cc3c1c(cn3C(C)C)C/C=C/CC2
b = Cc1cc2c(c(=O)[nH]1)CNC(=O)c1cc(C#CC(C)(C)O)cc3c1c(cn3C(C)C)C/C=C/CC2
c = Cc1cc2c(c(=O)[nH]1)CNC(=O)c1cc(Cl)cc3c1c(cn3C(C)C)CCCCC2
Using the recorded pIC50, list the entries above from smallest to largest. Use the labels to give the ranking in the order requested.
c, b, a
(c: 6.30, b: 6.70, a: 7.49)
